Measured on: T1, recombinant human CD127 extracellular domain (CD127 ECD) (human, UniProt P16871 21-219)
T1 construct: The assays only say 'recombinant human CD127 ECD'; also called IL-7Rα EDC; IL-7Rα
T1 chain: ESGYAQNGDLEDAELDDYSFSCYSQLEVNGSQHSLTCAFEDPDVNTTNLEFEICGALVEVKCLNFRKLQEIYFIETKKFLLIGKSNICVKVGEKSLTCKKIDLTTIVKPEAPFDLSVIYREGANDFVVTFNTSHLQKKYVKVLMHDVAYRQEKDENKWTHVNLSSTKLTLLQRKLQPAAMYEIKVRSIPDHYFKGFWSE
Protocol: SPR, Biacore T100, 25° C.; antibody captured on rabbit anti-mouse IgG, CD127 ECD as analyte
We begin with a simple list: items and their reported Kd.

| Binder | Kd, nM |
| --- | --- |
| mAb 6A3 (murine anti-human CD127 monoclonal antibody) (antibody, mouse IgG1, V domains shown, also called antibody 6A3) VH: DVQLQESGPGLVKPSQSLSLTCTVTGYSITTDYAWNWIRQFPGNKLEWMGYIFYSGSTTYTPSLKSRISITRDTSKNQFFLQLNSVTTEDTATYYCARGGYDVNYFDYWGQGTTLTVSS VL: DIQMTQSPASQSASLGESVTITCLASQTIGAWLAWYQQKPGKSPQLLIYAATRLADGVPSRFSGSGSGTKFSFKISSLQAEDFVSYYCQQFFSTPWTFGGGTKLEIK | 7.74 |
| mAb 1A11 (murine anti-human CD127 monoclonal antibody) (antibody, mouse IgG1, V domains shown, also called antibody 1A11) VH: EVQLQQSGPELLKPGASMKISCKASGYSFTGYTMNWVKQSHGKNLEWIGLINPYNGVTSYNQKFKGKATLTVAKSSSTAYMELLSLTSEDSAVYYCARGDGNYWYFDVWGAGTTVTVSS VL: EIVLTQSPAITAASLGQKVTITCSASSSVTYMHWYQQKSGTSPKPWIYEISKLASGVPVRFSGSGSGTSYSLTISSMEAEDAAIYYCQEWNYPYTFGGGTKLEIK | 3.44 |
| mAb GR34 (reverse engineered clone of R34.34) (antibody, mouse IgG1, V domains shown, also called antibody GR34) VH: EVQLQQSGPELVKPGASMKISCKASGYSFTGYTMNWVKQSHGKNLEWIGLINPYSGITSYNQNFKGKATLTVDKSSSTAYMELLNLTSEDSAVYYCARGDGNYWYFDVWGAGTTVTVSS VL: EIILTQSPAITAASLGQKVTITCSASSSVSYMHWYQQKSGTSPKPWIYEISKLASGVPARFSGSGSGTSYSLTISSMEAEDAAIYYCQYWNYPYTFGGGTKLEIK | 15.3 |

Origin of the recorded values: patent US20110287000A1
